Provenance of the data: patent US20250345392A1

Test: 14-day repeat IV dose toxicity study with toxicokinetic evaluation on Day 1 and 14 in dogs
Type: in vivo, beagle dogs
Conditions: dog, in vivo, 3 mg/kg, Group 3 (3 mg/kg), range over sexes and Days 1 and 14, read-out: AUCinf
Experimental: Peptide 1 in blood samples collected from animals used in the studies (rat and dog) has been measured by an LC-MS/MS method. Analysis of samples collected in the pharmacokinetic study in rats was performed prior to validation of the method. Prior to analysis of samples from the GLP toxicology studies, the method was validated according to GLP to ensure that it is selective, accurate, reproducible, and able to produce reliable results. […]
Ends that are not written are not given here.

# Substance, AUC(0-inf)
records = [
    ("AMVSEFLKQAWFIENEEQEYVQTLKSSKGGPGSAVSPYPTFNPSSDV-NH2 [Peptide 1]", "1420 to 1970 ng·h/mL"),
]

====

Test: 14-day repeat IV dose toxicity study with toxicokinetic evaluation on Day 1 and 14 in dogs
Type: in vivo, beagle dogs
Conditions: dog, in vivo, iv, 10 mg/kg/day, IV 10 mg/kg/day, female, Day 14, read-out: AUC0-∞ (converted)
Ends that are not written are not given here.

# Substance, AUC(0-inf) / ng·h/mL
records = [
    ("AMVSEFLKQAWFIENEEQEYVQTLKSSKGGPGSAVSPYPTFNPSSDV-NH2 [Peptide 1]", 4570),
]

====

Assay: 14-day repeat dose IV toxicity study with toxicokinetic evaluation on Day 1 and Day 14 in rats
Type: in vivo, Wistar rats
Details: rat, in vivo, iv, 1 mg/kg/day, IV 1.0 mg/kg/day, female, Day 14, read-out: T1/2
Experimental: Peptide 1 in blood samples collected from animals used in the studies (rat and dog) has been measured by an LC-MS/MS method. Analysis of samples collected in the pharmacokinetic study in rats was performed prior to validation of the method. Prior to analysis of samples from the GLP toxicology studies, the method was validated according to GLP to ensure that it is selective, accurate, reproducible, and able to produce reliable results. […]
Ends that are not written are not given here.

# Substance, half-life, min
data = [
    ("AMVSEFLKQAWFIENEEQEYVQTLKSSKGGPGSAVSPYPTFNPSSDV-NH2 [Peptide 1]", 7.11),
]

====

Test: Clinical test in humans, single 30-min i.v. infusion, plasma PK
Type: in vivo
Details: human, in vivo, iv, single 30-min i.v. infusion 200 μg/kg, mean, read-out: AUC0-t
Ends that are not written are not given here.

# Substance, AUC(0-t) [ng·h/mL]
rows = [
    ("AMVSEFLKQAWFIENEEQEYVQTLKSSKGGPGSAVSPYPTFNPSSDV-NH2 [Peptide 1]", 2120),
]

====

Test: 14-day repeat dose IV toxicity study with toxicokinetic evaluation on Day 1 and Day 14 in rats
Format: in vivo, Wistar rats
Conditions: rat, in vivo, iv, 3 mg/kg/day, IV 3.0 mg/kg/day, male, Day 1
Ends that are not written are not given here.

# Substance, U, C0
records = [
    ("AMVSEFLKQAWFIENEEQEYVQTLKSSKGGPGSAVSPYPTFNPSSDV-NH2 [Peptide 1]", "ng/mL", 23000),
]

====

Assay: Clinical test in humans, single 30-min i.v. infusion, plasma PK
Type: in vivo
Settings: human, in vivo, iv, 400 ug/kg, single 30-min i.v. infusion 400 μg/kg, mean, read-out: AUC0-t
Ends that are not written are not given here.
Property Measured: AUC(0-t) (ng·h/mL)

# Substance, Quantitative Result
data = [
    ("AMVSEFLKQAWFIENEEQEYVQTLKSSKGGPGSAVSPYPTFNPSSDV-NH2 [Peptide 1]", 4720),
]
